# tested_system: T1, GPR39 (G protein coupled receptor 39) (UniProt O43194 1-453, limits assumed)
# T1 sequence (looked up): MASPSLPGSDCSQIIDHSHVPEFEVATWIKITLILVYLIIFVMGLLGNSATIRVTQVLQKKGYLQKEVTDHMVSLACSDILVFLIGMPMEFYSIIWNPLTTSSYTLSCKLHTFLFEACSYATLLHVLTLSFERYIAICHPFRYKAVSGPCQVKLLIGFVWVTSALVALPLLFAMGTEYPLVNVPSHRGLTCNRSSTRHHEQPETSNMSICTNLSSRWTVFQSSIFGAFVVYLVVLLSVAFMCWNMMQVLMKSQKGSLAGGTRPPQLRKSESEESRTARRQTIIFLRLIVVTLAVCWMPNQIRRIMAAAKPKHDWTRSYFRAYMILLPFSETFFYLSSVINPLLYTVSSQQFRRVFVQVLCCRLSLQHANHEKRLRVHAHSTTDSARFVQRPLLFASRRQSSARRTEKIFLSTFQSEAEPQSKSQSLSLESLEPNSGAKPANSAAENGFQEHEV
# test_protocol: cell-based or functional assay
Square brackets hold non-standard residues; d marks the D form. Ends that are not written are not given here. * marks the point of attachment. 2‑(4-tert-butyl)phenyl = 2-(4-tert-butylphenyl) substituent on the histidine imidazole (2-(4-(tert-butyl)phenyl)-1H-imidazol-4-yl), CC(C)(C)c1ccc(*)cc1; Tyr(3-NO2) = N[C@@H](Cc1ccc(O)c([N+](=O)[O-])c1)C(=O)O; dPhe(4-Cl) = N[C@H](Cc1ccc(Cl)cc1)C(=O)O; dPhe(4-Me) = Cc1ccc(C[C@@H](N)C(=O)O)cc1; Mtt = Cc1ccc(C(c2ccccc2)(c2ccccc2)*)cc1; Trt = c1ccc(C(c2ccccc2)(c2ccccc2)*)cc1; Benzhydryl = c1ccc(C(c2ccccc2)*)cc1; Octanoyl = CCCCCCCC(=O)*
Readings of ECmax; SRE-luciferase reporter for the listed binders

// known answers, use as guide
In [3]: df
Out[3]:
                                     binder                           result
0  H(Trt)K(Octanoyl)FYQNQARF (also: C-terminal Phe amide in IUPAC name, not in sequence formula) [HKFY-43]  12.1 -fold induction over basal
1  H(Benzhydryl)K(Octanoyl)[dPhe(4-Me)][Tyr(3-NO2)]-OH [HKFY-68]  10.8 -fold induction over basal
2              H(Mtt)K(Octanoyl)FY [HKFY-5]    16 -fold induction over basal
3  H(2‑(4-tert-butyl)phenyl)K(Octanoyl)[dPhe(4-Me)]Y-OH [HKFY-60]  28.2 -fold induction over basal
4      H(Benzhydryl)K(Octanoyl)FY [HKFY-33]    20 -fold induction over basal

# evaluate next
Briefly, ECmax; SRE-luciferase reporter measured for H(Trt)K(Octanoyl)[dPhe(4-Cl)][dY] [HKFY-15] : 24.7 -fold induction over basal

Data origin, for the record: patent US20250340591A1
